Below, each of the compounds is paired with its reported inhibition of SARS-CoV-2 cytopathic effect value.
Test system: Vero E6 infected with SARS-CoV-2
assay-info: inhibition of SARS-CoV-2 cytopathic effect; higher = more antiviral protection, active = above 15
condition: 100 nM; 48 h
value-kind: inhibition of SARS-CoV-2 cytopathic effect (%)

compound: CC1=C(C(=O)OC2CCCCC2)C(c2ccc([N+](=O)[O-])cc2)C2=C(CC(C)(C)CC2=O)N1 (stereo not given)
value-measured: -1.86
//
compound: CCOc1cncc(/C=C/CCNC)c1
value-measured: -0.92
//
compound: CN1C(=O)/C(=C2/C(=O)Nc3ccccc32)c2ccccc21 [meisoindigo]
value-measured: -2.28
//
compound: CC(=O)N1N=C(c2ccc(N)cc2)c2cc3c(cc2C[C@H]1C)OCO3 [talampanel]
value-measured: 0.91
//
compound: CO[C@@]1(NC(=O)C2SC(=C(C(N)=O)C(=O)O)S2)C(=O)N2C(C(=O)O)=C(CSc3nnnn3C)CS[C@@H]21 (stereo not given in full) [cefotetan]
value-measured: 2.32

Taken from the supplement of paper PMC13380429.
